Reference for the values: the supplement of paper PMC10681739

Molecular target: RUNX1 (UniProt Q01196)
Sequence (Q01196 whole entry): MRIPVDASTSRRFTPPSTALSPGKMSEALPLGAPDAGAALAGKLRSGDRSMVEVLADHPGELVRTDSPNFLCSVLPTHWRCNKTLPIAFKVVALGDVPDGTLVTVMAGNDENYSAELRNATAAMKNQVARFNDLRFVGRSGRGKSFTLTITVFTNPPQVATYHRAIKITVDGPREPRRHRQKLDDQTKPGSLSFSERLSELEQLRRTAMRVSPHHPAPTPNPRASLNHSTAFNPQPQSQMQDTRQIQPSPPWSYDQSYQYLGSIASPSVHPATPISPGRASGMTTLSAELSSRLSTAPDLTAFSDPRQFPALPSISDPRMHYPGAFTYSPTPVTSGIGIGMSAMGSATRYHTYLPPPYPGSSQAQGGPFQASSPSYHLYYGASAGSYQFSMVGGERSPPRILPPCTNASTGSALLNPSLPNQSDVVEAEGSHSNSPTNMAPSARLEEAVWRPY
Test: RUNX1 binding intensity (PBM fluorescence) in presence of ETS1, normalised to RUNX1-only experiment (arbitrary fluorescence units); higher = stronger binding
Details: RUNX1 concentration 2 nM; ETS1 concentration 25 nM
endpointName: RUNX1 binding intensity
Answer with the value's number alone.

Field: example entries. Status: answers known.
So what RUNX1 binding intensity did CGGGACCTGTTTCCTTGGGAACCACAAGATAAGACC get with RUNX1 (UniProt Q01196)?
892

Moving on to the next sequence: CCACCGTCCCCGGAAATAACCGCGCCTGCCTCTCAA
2090

Moving on to the next sequence: TATCGACAAAAGTTCCGGCCCGCGGTAGCGGAGGGA
970

Kindly consider the entry below.
So what RUNX1 binding intensity did GGGGTCAGGAAATGGGTGTGCCGCGGGTAAGGCGCT get with RUNX1 (UniProt Q01196)?
984

* * *

Target: ETS1 (UniProt P14921)
Sequence: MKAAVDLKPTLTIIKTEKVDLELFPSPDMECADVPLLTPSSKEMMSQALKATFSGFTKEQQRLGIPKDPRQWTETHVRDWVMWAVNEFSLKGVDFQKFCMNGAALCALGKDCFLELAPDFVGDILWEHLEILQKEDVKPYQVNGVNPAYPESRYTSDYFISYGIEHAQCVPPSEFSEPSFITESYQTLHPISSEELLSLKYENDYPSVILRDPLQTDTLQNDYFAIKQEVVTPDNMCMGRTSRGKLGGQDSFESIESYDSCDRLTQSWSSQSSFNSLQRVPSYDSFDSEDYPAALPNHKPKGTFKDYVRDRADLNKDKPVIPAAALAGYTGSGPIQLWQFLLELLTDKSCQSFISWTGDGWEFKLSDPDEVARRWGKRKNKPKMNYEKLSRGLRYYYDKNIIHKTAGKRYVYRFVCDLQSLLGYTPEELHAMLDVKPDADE
Assay: ETS1 binding intensity (PBM fluorescence), ETS1 alone (arbitrary fluorescence units); higher = stronger binding
Details: ETS1 concentration 1 nM; RUNX1 concentration 0 nM
The sequences listed here are annotated with their ETS1 binding intensity.
Answer with the value's number alone.

Field: example entries. Status: answers known.
Param item = AAACTACTTTCCTTCCTACCAAAACCACACTAAAGA ; retrieve measured ETS1 binding intensity.
620

Moving on to the next sequence: CGTGTGGGAGGCCGGAAGTTGCGGCTTCATTACTCG
20400

Moving on to the next sequence: GAGGTTGGGAAGTTCTTCCTTTGGTCTGACCACAGT
453

New cases:
Param item = TCATTTCCTCTGGTGTTATTGTGTTGTGGTTTTAAG ; retrieve measured ETS1 binding intensity.
417

Moving on to the next sequence: TACTACTTACCAGCAGGATGTGGTCCCTGCCCACTG
3230

* * *

Target: ETS1 (UniProt P14921)
Sequence: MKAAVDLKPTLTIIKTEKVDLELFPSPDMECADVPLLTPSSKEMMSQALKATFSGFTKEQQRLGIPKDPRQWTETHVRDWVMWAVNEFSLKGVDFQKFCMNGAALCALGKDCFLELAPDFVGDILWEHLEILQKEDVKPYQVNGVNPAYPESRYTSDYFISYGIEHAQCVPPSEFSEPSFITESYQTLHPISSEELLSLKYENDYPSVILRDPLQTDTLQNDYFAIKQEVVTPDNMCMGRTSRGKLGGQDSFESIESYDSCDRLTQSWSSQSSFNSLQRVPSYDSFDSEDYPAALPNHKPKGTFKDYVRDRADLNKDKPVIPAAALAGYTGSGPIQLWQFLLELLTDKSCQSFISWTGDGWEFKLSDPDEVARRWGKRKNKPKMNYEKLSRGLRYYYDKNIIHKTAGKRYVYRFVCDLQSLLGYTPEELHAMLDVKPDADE
Assay: ETS1 binding intensity (PBM fluorescence), ETS1 alone (arbitrary fluorescence units); higher = stronger binding
Details: ETS1 concentration 1 nM; RUNX1 concentration 0 nM
Label t when ETS1 binding intensity is at or above 2000; anything below gets f.

Before answering, review these 5 worked examples.
Evaluate GCTGATAGAACAGGATGTGGTAAAGAAGCAGGCCAA : ETS1 binding intensity at minimum 2000?
t

Moving on to the next sequence: AAAGAACTTCCTGAGGTGCTTGAGGTTAGGCTATGG
f

Moving on to the next sequence: CCCAACCATTTCCGCCACACCTCCAACCCACTGCCG
f

Moving on to the next sequence: CTTGCCACACTTCCTCTTGTTTTGAACCACTATATT
f

Moving on to the next sequence: AGGTTGAAAGCACTTCCGCTGCGGCCCCCGTAGGAA
t

Next up:
Evaluate GTAGCCGGGTGTTCCGGAGCGCTGCGGGCAAAGCAG : ETS1 binding intensity at minimum 2000?
f
